target: MDR1 (P-glycoprotein, ABCB1) (Homo sapiens, UniProt P08183); test: TP_TRANSPORTER: increase in Calcein-AM intracellular accumulation (Calcein-AM: ? uM, Desipramine: 100 uM) in MDR1-expressing MDCKII cells; type: functional, cell-based, MDCK-II; conditions: dog, probe Calcein-AM
Sequence (P08183 whole entry): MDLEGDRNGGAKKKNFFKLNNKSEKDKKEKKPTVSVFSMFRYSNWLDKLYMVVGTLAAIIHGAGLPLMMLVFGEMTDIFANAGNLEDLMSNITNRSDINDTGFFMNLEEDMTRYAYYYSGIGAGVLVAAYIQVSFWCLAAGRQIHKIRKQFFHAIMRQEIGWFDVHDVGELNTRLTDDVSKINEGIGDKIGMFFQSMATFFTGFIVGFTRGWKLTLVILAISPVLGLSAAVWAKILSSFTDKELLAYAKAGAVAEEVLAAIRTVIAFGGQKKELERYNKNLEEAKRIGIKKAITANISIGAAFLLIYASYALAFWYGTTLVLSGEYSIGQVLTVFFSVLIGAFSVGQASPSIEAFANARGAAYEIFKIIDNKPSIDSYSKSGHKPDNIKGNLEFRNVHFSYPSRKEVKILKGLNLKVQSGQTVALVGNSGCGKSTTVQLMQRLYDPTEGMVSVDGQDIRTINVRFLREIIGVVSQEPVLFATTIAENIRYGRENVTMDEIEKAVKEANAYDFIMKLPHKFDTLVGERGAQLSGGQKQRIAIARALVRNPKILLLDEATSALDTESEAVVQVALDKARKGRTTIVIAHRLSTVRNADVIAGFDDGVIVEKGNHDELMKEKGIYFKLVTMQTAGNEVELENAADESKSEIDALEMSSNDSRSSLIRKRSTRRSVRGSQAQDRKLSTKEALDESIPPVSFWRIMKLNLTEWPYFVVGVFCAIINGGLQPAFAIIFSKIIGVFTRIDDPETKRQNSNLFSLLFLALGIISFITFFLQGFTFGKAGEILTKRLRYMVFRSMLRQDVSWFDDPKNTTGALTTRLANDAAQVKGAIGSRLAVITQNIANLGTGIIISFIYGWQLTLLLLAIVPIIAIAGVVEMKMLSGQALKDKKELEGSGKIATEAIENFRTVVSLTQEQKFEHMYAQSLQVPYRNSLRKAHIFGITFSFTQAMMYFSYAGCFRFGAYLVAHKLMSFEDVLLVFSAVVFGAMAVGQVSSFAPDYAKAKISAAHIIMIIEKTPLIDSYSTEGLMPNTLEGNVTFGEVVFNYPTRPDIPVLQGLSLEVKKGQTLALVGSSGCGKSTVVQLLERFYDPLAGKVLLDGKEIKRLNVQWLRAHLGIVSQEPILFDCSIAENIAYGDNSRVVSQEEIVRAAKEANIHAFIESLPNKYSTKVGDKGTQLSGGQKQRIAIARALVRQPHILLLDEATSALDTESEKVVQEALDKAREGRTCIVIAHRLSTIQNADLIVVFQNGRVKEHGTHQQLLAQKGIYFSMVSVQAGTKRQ
measure_name: inhibition at 100 µM (%)
Just the number in %, nothing appended.

Any idea what inhibition at 100 µM was measured for CNCCCN1c2ccccc2CCc2ccccc21 ?
12.8

* * *

target: MDR1 (P-glycoprotein, ABCB1) (Homo sapiens, UniProt P08183); experiment: TP_TRANSPORTER: increase in Calcein-AM intracellular accumulation (Calcein-AM: ? uM, Haloperidol: 100 uM) in MDR1-expressing MDCKII cells; format: functional, cell-based, MDCK-II; settings: dog, probe Calcein-AM
measure_name: inhibition at 100 µM (%)
Write the answer as a number in %, unit excluded.

I would be grateful if you could share the reported inhibition at 100 µM for O=C(CCCN1CCC(O)(c2ccc(Cl)cc2)CC1)c1ccc(F)cc1 [HALOPERIDOL] .
37.2
